- system_tested: GST tagged LXRalpha LBD (ligand binding domain) (Homo sapiens)
- Sequence (Q13133 209-447 limits assumed): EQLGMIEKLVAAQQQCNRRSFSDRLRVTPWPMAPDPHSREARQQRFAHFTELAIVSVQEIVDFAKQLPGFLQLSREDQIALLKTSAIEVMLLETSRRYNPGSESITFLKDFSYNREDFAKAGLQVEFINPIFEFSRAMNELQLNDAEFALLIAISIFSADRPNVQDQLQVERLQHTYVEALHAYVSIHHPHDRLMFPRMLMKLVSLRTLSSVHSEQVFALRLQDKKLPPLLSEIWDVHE
- assay_info: LanthaScreen TR-FRET Liver X Receptor Coactivator Assay, LXR alpha-LBD
- condition_details: Inflection Point (potency), co-activator recruitment, relative to reference T0901317; read-out: LXR alpha IP
pEC50: −log10 of the molar value.
readout: pEC50

1) CN(C)C(=O)c1ccc(N2CCC(C3CCN(C(=O)[C@@](O)(c4ccccc4)C(F)(F)C(F)(F)F)CC3)CC2)nc1Cl (single isomer, unassigned)	6.07

P. CC(C)C(O)(C(=O)N1CCC(C2CCN(c3ccc(C(=O)N(C)C)c(Cl)c3)CC2)CC1)C(F)(F)C(F)(F)F (stereo not drawn)
Q. CS(=O)(=O)c1ccc(N2CCC(C3CCN(C(=O)[C@](O)(c4ccccc4)C(F)(F)F)CC3)CC2)cc1Cl
Ask | Identify the item whose pEC50 is the smaller number: P or Q Please identify the chosen entry by its label.
Reply | P

* * *

- system_tested: GST tagged LXRbeta LBD (ligand binding domain) (Homo sapiens)
- assay_info: LanthaScreen TR-FRET Liver X Receptor Coactivator Assay, LXR beta-LBD
- condition_details: Inflection Point (potency), co-activator recruitment, relative to reference T0901317; read-out: LXR beta IP
- Source text: […]
pEC50: −log10 of the molar value.
readout: pEC50

a. CN(C)C(=O)c1ccc(N2CCC(C3CCN(C(=O)C4(c5ccccc5Cl)CC4)CC3)CC2)cc1Cl
b. CN(C)C(=O)c1ccc(N2CCC(C3CCN(c4ccccc4Cl)CC3)CC2)cc1Cl
c. CCC(F)(C(=O)N1CCC(C2CCN(c3ccc(C(=O)N(C)C)c(Cl)c3)CC2)CC1)c1ccccc1 (stereo not drawn)
Ask | Can you order these entries from above by pEC50? Start with the largest number and work down. Form entry: ranked labels (order as requested).
Reply | a, c, b
(a: 7.80, c: 7.25, b: 6.08)

* * *

- system_tested: GST tagged LXRbeta LBD (ligand binding domain) (Homo sapiens)
- Sequence (P55055 222-460 limits assumed): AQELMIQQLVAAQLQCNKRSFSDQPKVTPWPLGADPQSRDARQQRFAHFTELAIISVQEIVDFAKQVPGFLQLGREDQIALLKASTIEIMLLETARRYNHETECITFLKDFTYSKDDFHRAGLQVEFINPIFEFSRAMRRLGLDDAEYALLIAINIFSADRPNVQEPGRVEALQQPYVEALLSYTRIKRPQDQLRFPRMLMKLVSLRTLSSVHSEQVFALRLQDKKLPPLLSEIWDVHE
- assay_info: LanthaScreen TR-FRET Liver X Receptor Coactivator Assay, LXR beta-LBD
- condition_details: Inflection Point (potency), co-activator recruitment, relative to reference T0901317; read-out: LXR beta IP
pEC50: −log10 of the molar value.
readout: pEC50

// known answers, use as guide
1) CN(C)C(=O)c1ccc(N2CCC(C3CCN(C(=O)C(C)(C)c4cccc(F)c4)CC3)CC2)cc1Cl	6.83
2) CN(C)C(=O)c1ccc(N2CCC(C3CCN(C(=O)[C@](O)(c4ccccc4)C(F)(F)F)CC3)CC2)cc1Cl	7.28
3) O=C(c1ccc(N2CCC(C3CCN(C(=O)[C@](O)(c4ccccc4)C(F)(F)F)CC3)CC2)cc1Cl)N1CCC[C@@H]1CO	6.90
4) CN(C)C(=O)c1ccc(N2CCC(C3CCN(C(=O)C(O)(c4ccccc4)C4CC4)CC3)CC2)cc1Cl (stereo not drawn)	6.77
5) CC(C)CC(O)(C(=O)N1CCC(C2CCN(c3ccc(C(=O)N(C)C)c(Cl)n3)CC2)CC1)C(F)(F)F (stereo not drawn)	7.14
6) CN(C)C(=O)c1ccc(N2CCC(C3CCN(C(=O)C4(c5ccc(F)cc5)CCC4)CC3)CC2)cc1Cl	6.68
7) CN(C)C(=O)c1ccc(N2CCC(C3CCN(C(=O)C(O)(c4ccccc4)C(F)(F)F)CC3)CC2)nc1Cl (stereo in doubt) [Example B-9]	7.32

P. COc1ccc(C2(C(=O)N3CCC(C4CCN(c5ccc(C(=O)N(C)C)c(Cl)c5)CC4)CC3)CCCC2)cc1
Q. CN(C)C(=O)c1ccc(N2CCC(C3CCN(C(=O)C4(C(F)(F)F)CCC4)CC3)CC2)cc1Cl
Ask | Between the entries labelled P and Q , which has a larger pEC50 value on record? Please identify the chosen entry by its label.
Reply | P
(P: 6.73, Q: 6.28)

* * *

- system_tested: GST tagged LXRbeta LBD (ligand binding domain) (Homo sapiens, UniProt P55055)
- Construct: purchased Invitrogen pv4658.pps
- assay_info: LanthaScreen TR-FRET Liver X Receptor Coactivator Assay, LXR beta-LBD
- Assay type: biochemical
- condition_details: activity at max dose (efficacy), relative to reference T0901317; read-out: LXR beta act @ max dose (%)
readout: Emax (%)

1) Cc1nnc(CN(C)C(=O)c2ccc(N3CCC(C4CCN(C(=O)[C@](O)(c5ccccc5)C(F)(F)F)CC4)CC3)cc2Cl)o1	71
2) O=C(c1ccc(N2CCC(C3CCN(C(=O)[C@](O)(c4ccccc4)C(F)(F)F)CC3)CC2)cc1Cl)N1CC(F)C1	68
3) CC(C)(C)OC(=O)N1CCC(C2CCN(c3ccc(C(C)(C)O)c(Cl)c3)CC2)CC1	69
